In this section, each of the binders is paired with its reported kon.
# system.tested: T1, mature human TGF-β2 (human, UniProt P61812 303-414)
# T1 construct: Bought protein (RDI, Cat # RDI-1035); also called TGF-b2
# T1 sequence: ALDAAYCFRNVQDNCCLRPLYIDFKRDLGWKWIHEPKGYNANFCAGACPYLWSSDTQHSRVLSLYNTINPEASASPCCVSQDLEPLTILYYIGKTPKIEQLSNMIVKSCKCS
# assay.method.text: BIAcore 2000 SPR, antibody captured on Protein A, TGF-β injected

binder	kon
mAb 4.17 (antibody, human IgG4 S228P, kappa, V domains shown, Full-length monoclonal antibody, made by linking the Fab to an IgG4 Fc region) VH: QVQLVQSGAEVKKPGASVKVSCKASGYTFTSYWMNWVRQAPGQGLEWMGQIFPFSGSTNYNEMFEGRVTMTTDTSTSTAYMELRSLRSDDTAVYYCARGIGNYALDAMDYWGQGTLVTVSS VL: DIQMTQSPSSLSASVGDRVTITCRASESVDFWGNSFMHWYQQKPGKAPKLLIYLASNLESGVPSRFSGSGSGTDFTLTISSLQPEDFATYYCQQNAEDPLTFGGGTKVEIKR	2.37e+07 M⁻¹ s⁻¹
mAb 12.7 (antibody, human IgG4 S228P, kappa, V domains shown, Full-length monoclonal antibody, made by linking the Fab to an IgG4 Fc region) VH: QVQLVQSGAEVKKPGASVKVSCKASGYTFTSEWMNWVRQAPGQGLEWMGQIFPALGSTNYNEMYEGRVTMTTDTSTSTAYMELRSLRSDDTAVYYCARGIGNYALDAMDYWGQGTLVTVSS VL: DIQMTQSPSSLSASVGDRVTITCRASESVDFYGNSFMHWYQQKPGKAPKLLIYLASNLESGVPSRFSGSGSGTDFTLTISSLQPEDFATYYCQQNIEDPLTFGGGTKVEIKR	2.8e+07 M⁻¹ s⁻¹
mAb 12.4 (antibody, human IgG4 S228P, kappa, V domains shown, Full-length monoclonal antibody, made by linking the Fab to an IgG4 Fc region) VH: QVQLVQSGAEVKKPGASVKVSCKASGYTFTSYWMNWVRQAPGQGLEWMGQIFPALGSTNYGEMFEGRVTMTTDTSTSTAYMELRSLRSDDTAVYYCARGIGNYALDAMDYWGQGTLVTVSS VL: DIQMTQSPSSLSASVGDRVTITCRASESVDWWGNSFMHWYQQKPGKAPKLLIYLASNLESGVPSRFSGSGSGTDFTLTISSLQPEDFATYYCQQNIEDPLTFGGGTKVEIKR	2.42e+07 M⁻¹ s⁻¹
mAb 12.8 (antibody, human IgG4 S228P, kappa, V domains shown, Full-length monoclonal antibody, made by linking the Fab to an IgG4 Fc region) VH: QVQLVQSGAEVKKPGASVKVSCKASGYTFTSYWMNWVRQAPGQGLEWMGQIFPALGSTNYNEMFEGRVTMTTDTSTSTAYMELRSLRSDDTAVYYCARGIGNYALDAMDYWGQGTLVTVSS VL: DIQMTQSPSSLSASVGDRVTITCRASESVDWYGNSFMHWYQQKPGKAPKLLIYYASNLESGVPSRFSGSGSGTDFTLTISSLQPEDFATYYCQQNAEDPLTFGGGTKVEIKR	2.29e+07 M⁻¹ s⁻¹
mAb 3.A (antibody, human IgG4 S228P, kappa, V domains shown, Full-length monoclonal antibody, made by linking the Fab to an IgG4 Fc region) VH: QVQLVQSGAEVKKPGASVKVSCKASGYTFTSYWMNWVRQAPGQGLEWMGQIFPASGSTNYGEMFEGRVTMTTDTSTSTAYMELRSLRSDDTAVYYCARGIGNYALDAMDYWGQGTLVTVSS VL: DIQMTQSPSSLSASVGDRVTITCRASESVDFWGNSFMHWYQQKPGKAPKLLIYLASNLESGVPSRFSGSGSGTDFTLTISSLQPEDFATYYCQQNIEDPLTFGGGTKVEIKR	> 5e+07 M⁻¹ s⁻¹

Value source: patent US20090155285A1
